Below, each entry is listed with its recorded MFI.
molecular target: T1, human chemokine (C-C motif) receptor 8 (CCR8) (human, UniProt P51685 1-355); assay: flow cytometry blocking, PBMC CCR8+ CD4+ cells; competitor PE-AB2 (its MFI is read)
T1 construct: On human peripheral blood lymphocytes / PBMC (native) or on human CCR8 GFP-transfected Ba/F3 cells; also called hCCR8; human CCR8
T1 sequence (P51685 whole entry): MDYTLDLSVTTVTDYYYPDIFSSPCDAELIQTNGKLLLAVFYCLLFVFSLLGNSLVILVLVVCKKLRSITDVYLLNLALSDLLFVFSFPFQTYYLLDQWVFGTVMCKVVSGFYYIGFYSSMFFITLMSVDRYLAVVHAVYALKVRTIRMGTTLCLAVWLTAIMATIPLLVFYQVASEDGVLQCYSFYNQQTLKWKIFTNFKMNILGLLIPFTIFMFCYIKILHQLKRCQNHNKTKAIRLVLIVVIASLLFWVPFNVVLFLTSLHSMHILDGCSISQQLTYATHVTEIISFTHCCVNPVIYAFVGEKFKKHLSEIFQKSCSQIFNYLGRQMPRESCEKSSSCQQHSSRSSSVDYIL
// no unit, no text: just the number

Look over these answered cases.
# binder, MFI
measured = [
    ("AB13 (antibody, V domains shown, Hybridoma monoclonal; also called antibody 13; clone 13) VH: EVQLVETGGGLVQPKGSLKLSCAASGFTFNAYAMNWVRQAPGKGLEWVARIRTKSNNYATYYADSVKDRFTISRDDSQTMLYLQMNNLKTEDTAMYYCVRDRATVTTGRAMDYWGQGTSVTVSS VL: DIVMTQAAPSLPVTPGESVSISCRSSKSLLHSNGNTYLYWFLQRAGQSPQLLIYRMSNLASGVPDRFSGSGSGTAFTLRISRVEAEDVGVYYCMQHLEYPFTFGSGTKLEIK", 1030),
    ("AB14 (antibody, V domains shown, Hybridoma monoclonal; also called antibody 14; clone 14) VH: EVQLVESGGGLVQPKGSLKLSCAASGFTFNTYAMNWVRQAPGKGLEWVARIRSKSNNYATYYVDSVKDRFTISRDDSQSMLYLQINNLKTEDTAMYYCVRGRELGPYSAMDYWGQGTSVTVSS VL: DIVMTQAAPSVPVTPGESVSISCRSSKSLLHSNGNTYLYWFLQRPGQSPQLLIYRMSNLASGVPDRFSGSGSGTAFTLRISRVEAEDVGLYYCMQHLEYPFTFGGGTKLEIK", 888),
]

Next item in the queue.
MFI reading for AB3 (antibody, V domains shown, Hybridoma monoclonal; also called antibody 3; clone 3) VH: QVQLKESGPGLVKPSETLSLTCTVSGFSLTSYHISWVRQPPGKGLEWMGVIWGDGKTTYNSALKSRLSISRDTSKSQVFLKMNSLKTEDTATYYCARGGDSGFAYWGQGTLVTVSS VL: DIQMTQSPASLSASLEEIVTITCQASQDIGNWLSWYQQKPGKSPQLLIYGTTNLADGVPSRFSGSRSGTQYSLKISRLQVEDIGIYYCLQAYSVPLTFGSGTKLEIK : 422
